System: platelet aggregation induced by ADP
Assay: ADP (adenosine diphosphate) induced-platelet aggregation inhibiting activity (in vitro, platelet-rich plasma)
Type: cell-based, human (healthy volunteer)
Settings: ADP final concentration 10 μM, 37° C., pre-incubation 5 minutes; prime (') = converted into carboxylic acid compound before test; read-out: in vitro Platelet aggregation inhibition activity IC50
pIC50: −log10 of the molar value.

substance	measurementTarget	pIC50
Arg-Gly-Asp-Ser (RGDS; printed: Arg-Gly-Asp-Ser) [peptide derivative such as Arg-Gly-Asp-Ser (hereinafter abbreviated to as RGDS)]	platelet aggregation induced by ADP	5.40

====

Recorded measurements of IC50, one per entry
Tested on: platelet aggregation induced by ADP
Test: ADP (adenosine diphosphate) induced-platelet aggregation inhibiting activity (in vitro, platelet-rich plasma)
Type: cell-based, human (healthy volunteer)
Conditions: Homo sapiens, Platelet; ADP final concentration 10 μM, 37° C., pre-incubation 5 minutes; prime (') = converted into carboxylic acid compound before test; read-out: in vitro Platelet aggregation inhibition activity IC50

compound	IC50 [nM]
N=C(N)c1ccc(C(=O)N[C@@H](Cc2ccc(OCc3ccccc3)cc2)C(=O)N2CCc3nn(CC(=O)O)cc3C2)cc1 [Example I-138]	60
N=C(N)c1ccc(C(=O)N[C@@H](Cc2ccc([N+](=O)[O-])cc2)C(=O)N2C3CCC2c2cn(CC(=O)O)nc2C3)cc1 (stereo partly shown) [Example I-91]	50
C[C@H](NC(=O)c1ccc(C(=N)N)cc1)C(=O)N1CCc2nn(CC(=O)O)cc2C1 [Example I-126]	80
N=C(N)c1ccc(C(=O)N[C@@H](Cc2ccc([N+](=O)[O-])cc2)C(=O)N2CCc3sc(CC(=O)O)cc3C2)cc1 [Example I-5]	30
CN(C(=O)c1ccc(C(=N)N)cc1)[C@@H](Cc1ccc([N+](=O)[O-])cc1)C(=O)N1CCc2nn(CC(=O)O)cc2C1 [Example I-136]	60
N=C(N)c1ccc(C(=O)N[C@@H](Cc2ccccc2)C(=O)N2CCc3nn(CC(=O)O)cc3C2)cc1 [Example I-128]	50
N=C(N)c1ccc(C(=O)N[C@@H](Cc2ccc([N+](=O)[O-])cc2)C(=O)N2CCc3nn(CC(=O)O)cc3C2)cc1 [Example I-79]	20
